Below, each of the compounds is paired with its reported Henry solubility constant Hcp at 310 K value.
PROCEDURE SUMMARY: Henry solubility constant Hcp at 310 K (mol/(m3 Pa))
CONDITION LABEL: reference: Guitart et al. (1989)

{"columns": ["COMPOUND", "Henry solubility constant Hcp at 310 K"],
 "data": [
  ["CCCC", "8e-06"],
  ["CCOCC", 0.0063],
  ["CCCCCC", "6.7e-06"],
  ["FS(F)(F)(F)(F)F [sulfur hexafluoride]", "1.4e-06"],
  ["c1ccccc1", 0.002],
  ["CC(C)=O", 0.12],
  ["ClC=C(Cl)Cl", 0.00055],
  ["CCCCCCC", "6e-06"],
  ["ClCCl", 0.0034],
  ["C1CC1", "7.8e-05"],
  ["CC(C)CC(C)(C)C", "4.6e-06"],
  ["CCOC(C)=O [ethyl ethanoate]", 0.043],
  ["C1CCCCC1", "3.4e-05"],
  ["FC(F)(F)C(Cl)Br (configuration not stated)", 0.00028],
  ["CC(Cl)(Cl)Cl", 0.00032],
  ["CC(C)OC(C)C", 0.0028],
  ["FC(F)OC(F)(F)C(F)Cl (configuration not stated)", 0.00027]
]}

Ref: Sander's compilation of Henry's law constants (doi:10.1016/s0378-4347(00)82845-5)
